# subject-of-test: human CD33 Y233A (human, UniProt P20138 18-364)
# Sequence (P20138 18-364 Y233A limits assumed): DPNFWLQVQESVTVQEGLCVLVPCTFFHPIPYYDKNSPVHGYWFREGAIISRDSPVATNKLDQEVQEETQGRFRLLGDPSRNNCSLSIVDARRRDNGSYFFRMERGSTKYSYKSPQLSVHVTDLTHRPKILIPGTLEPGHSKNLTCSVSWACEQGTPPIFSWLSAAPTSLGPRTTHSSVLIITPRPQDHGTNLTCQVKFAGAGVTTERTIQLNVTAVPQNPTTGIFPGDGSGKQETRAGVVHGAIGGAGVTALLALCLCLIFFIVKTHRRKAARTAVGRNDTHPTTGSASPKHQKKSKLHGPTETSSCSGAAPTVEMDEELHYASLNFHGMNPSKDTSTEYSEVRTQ
# method-description: alanine scan, flow cytometry, HEK293-T;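 also: antibody binding to each alanine-substituted CD33 mutant expressed transiently in HEK293-T, read as fluorescence minus background, mean of duplicates, relative to wild-type CD33 set as 100%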

binder | unit-info | Mean % WT Binding
Refmab #2 (antibody, V domains shown, In the alanine scan antibodies were used as IgG or Fab) VH: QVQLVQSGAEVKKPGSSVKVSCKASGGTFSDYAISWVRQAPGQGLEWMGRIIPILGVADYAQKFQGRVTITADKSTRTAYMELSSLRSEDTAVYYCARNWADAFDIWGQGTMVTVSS VL: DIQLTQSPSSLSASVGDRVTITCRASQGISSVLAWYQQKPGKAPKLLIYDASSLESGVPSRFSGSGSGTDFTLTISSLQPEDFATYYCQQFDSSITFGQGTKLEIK | % | 107
Refmab #3 (antibody, V domains shown, In the alanine scan antibodies were used as IgG or Fab) VH: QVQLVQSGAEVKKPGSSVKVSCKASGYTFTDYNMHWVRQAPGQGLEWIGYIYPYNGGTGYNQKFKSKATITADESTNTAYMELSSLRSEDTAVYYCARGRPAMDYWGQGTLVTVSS VL: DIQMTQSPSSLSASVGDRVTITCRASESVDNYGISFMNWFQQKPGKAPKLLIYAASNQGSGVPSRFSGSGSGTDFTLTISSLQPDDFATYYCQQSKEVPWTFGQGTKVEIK | % | 146
Refmab #1 (antibody, V domains shown, In the alanine scan antibodies were used as IgG or Fab; also called hP67.6) VH: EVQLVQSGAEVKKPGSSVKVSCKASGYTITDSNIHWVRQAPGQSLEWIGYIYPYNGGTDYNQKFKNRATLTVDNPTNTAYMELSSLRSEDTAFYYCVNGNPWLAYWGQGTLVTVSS VL: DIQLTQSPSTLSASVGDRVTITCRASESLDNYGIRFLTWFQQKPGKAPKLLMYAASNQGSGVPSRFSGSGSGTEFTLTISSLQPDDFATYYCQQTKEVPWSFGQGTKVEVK | % | 115
Refmab #4 (antibody, V domains shown, In the alanine scan antibodies were used as IgG or Fab) VH: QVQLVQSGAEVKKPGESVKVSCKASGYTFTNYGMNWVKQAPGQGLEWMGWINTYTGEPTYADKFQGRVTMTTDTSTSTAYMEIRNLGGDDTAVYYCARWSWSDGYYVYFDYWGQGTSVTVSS VL: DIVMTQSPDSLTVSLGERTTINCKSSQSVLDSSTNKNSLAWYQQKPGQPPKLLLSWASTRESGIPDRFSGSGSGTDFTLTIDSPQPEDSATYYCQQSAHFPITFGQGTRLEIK | % | 98.5
